Let's look at some molecules and their measured GI50.
System: OVCAR3 cells
Experiment: MTT proliferation assay, OVCAR3;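 further: compound given as an 8- or 10-point series, one day after plating, with exposure covering roughly 3-4 cell doublings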
Type: cell-based
Conditions: 5 days compound exposure, 1:3 serial dilution starting at 10 μM
*1 amine or outer side, *2 acyl side, *3 side chain or, on linkers, in order; H or OH if unused. Where a SMILES comes first, the peptide text is derived from it. Bridges are numbered along the chain shown (N, C = ends). [ ]: non-standard residue; d: D form. The star is where a group is joined. NMePhe(2-(4-MorPh),5-Cl) = CN[C@@H](Cc1cc(Cl)ccc1-c1ccc(N2CCOCC2)cc1)C(=O)O; X93 = CN([C@@H](Cc1cc(Cl)ccc1-c1ccc(OC2CCOCC2)cc1)C(=O)[*:2])[*:1]; X14 = Cc1nc(C)c(-c2ccc(Cl)cc2C[C@@H](C(=O)[*:2])N(C)[*:1])s1; NMehhhLys(Me) = CN([C@@H](CCCCCCCN(C)[*:3])C(=O)[*:2])[*:1]; cBuCO(3,3-F2-1-CF3) = O=C(C1(C(F)(F)F)CC(F)(F)C1)*; Pro(trans-4-F) = O=C(O)[C@@H]1C[C@@H](F)CN1; Gly(cPr) = N[C@H](C(=O)O)C1CC1

Molecule | GI50, nM
CC(C)C[C@@H]1NC(=O)[C@@H](N(C)C(=O)[C@@H](NC(=O)[C@@H]2C[C@@H](F)CN2C(=O)C2(C(F)(F)F)CC(F)(F)C2)C2CC2)CCCCCCCN(C)C(=O)[C@H](Cc2cc(Cl)ccc2-c2ccc(OC3CCOCC3)cc2)N(C)C1=O [Example 340] ({cBuCO(3,3-F2-1-CF3)}-[Pro(trans-4-F)][Gly(cPr)][NMehhhLys(Me)]L[X93]; lactam 3-C) | 20
CC(C)C[C@@H]1NC(=O)[C@@H](N(C)C(=O)[C@@H](NC(=O)[C@@H]2C[C@@H](F)CN2C(=O)C2(C(F)(F)F)CC(F)(F)C2)C2CC2)CCCCCCCN(C)C(=O)[C@H](Cc2cc(Cl)ccc2-c2ccc(N3CCOCC3)cc2)N(C)C1=O [Example 261] ({cBuCO(3,3-F2-1-CF3)}-[Pro(trans-4-F)][Gly(cPr)][NMehhhLys(Me)]L[NMePhe(2-(4-MorPh),5-Cl)]; lactam 3-C) | 10
Cc1nc(C)c(-c2ccc(Cl)cc2C[C@H]2C(=O)N(C)CCCCCCC[C@H](N(C)C(=O)[C@@H](NC(=O)[C@@H]3C[C@@H](F)CN3C(=O)C3(C(F)(F)F)CC(F)(F)C3)C3CC3)C(=O)N[C@@H](CC(C)C)C(=O)N2C)s1 [Example 207] ({cBuCO(3,3-F2-1-CF3)}-[Pro(trans-4-F)][Gly(cPr)][NMehhhLys(Me)]L[X14]; lactam 3-C) | 40
